# System: cetuximab IgG
# protocol-text: Surface plasmon resonance binding kinetics of meditope variants to cetuximab
# assay-conditions: SPR, Biacore T100; cetuximab IgG amine-coupled to CM5 chip (5000 RU); HBS-EP+ pH 7.4; flow 30 µl min^−1; error <38% for values of variants marked ‡
# maps each entry to its k a
Give the value, in units of M^−1 s^−1 × 10^4, as a plain number.

As a guide, the following entries are already answered.
| smiles-input | measured |
| --- | --- |
| CC(C)C[C@@H]1NC(=O)[C@H](CCCNC(=N)N)NC(=O)[C@H](CCCNC(=N)N)NC(=O)[C@H]([C@@H](C)O)NC(=O)[C@H](CO)NC(=O)[C@H](CC(C)C)NC(=O)[C@H](CC(=O)O)NC(=O)[C@H](Cc2ccccc2)NC(=O)[C@H](CCC(N)=O)NC(=O)[C@@H](N)CSSC[C@@H](C(N)=O)NC(=O)[C@H](CCCCN)NC1=O | 12 |
| CC(C)C[C@@H]1NC(=O)[C@H](CCCNC(=N)N)NC(=O)[C@H](CCCNC(=N)N)NC(=O)[C@H]([C@@H](C)O)NC(=O)[C@H](CO)NC(=O)[C@H](CC(C)C)NC(=O)[C@H](CC(=O)O)NC(=O)[C@H](Cc2ccccc2)NC(=O)[C@H](CCC(N)=O)NC(=O)CCSSC[C@@H](C(=O)O)NC(=O)[C@H](CCCCN)NC1=O | 2.1 |
| CC(C)C[C@@H]1NC(=O)[C@H](CCCNC(=N)N)NC(=O)[C@H](CCCNC(=N)N)NC(=O)[C@H]([C@@H](C)O)NC(=O)[C@H](CO)NC(=O)[C@H](CC(C)C)NC(=O)[C@H](CC(=O)O)NC(=O)[C@H](Cc2ccccc2)NC(=O)[C@H](CCC(N)=O)NC(=O)CCNC(=O)CCNC(=O)[C@H](CCCCN)NC1=O | 5.8 |

## Input Reported k a for `CC(=O)N[C@H]1CSSC[C@@H](C(N)=O)NC(=O)[C@H](CCCCN)NC(=O)[C@H](CC(C)C)NC(=O)[C@H](CCCNC(=N)N)NC(=O)[C@H](CCCNC(=N)N)NC(=O)[C@H]([C@@H](C)O)NC(=O)[C@H](CO)NC(=O)[C@H](CC(C)C)NC(=O)[C@H](CC(=O)O)NC(=O)[C@H](Cc2ccccc2)NC(=O)[C@H](CCC(N)=O)NC1=O` : what is it?
## Output 15

## Input Reported k a for `CC(C)C[C@@H]1NC(=O)[C@H](CCCNC(=N)N)NC(=O)[C@H](CCCNC(=N)N)NC(=O)[C@H]([C@@H](C)O)NC(=O)[C@H](CO)NC(=O)[C@H](CC(C)C)NC(=O)[C@H](CC(=O)O)NC(=O)[C@H](Cc2ccccc2)NC(=O)[C@H](CCC(N)=O)NC(=O)CCCCCCNC(=O)[C@H](CCCCN)NC1=O` : what is it?
## Output 3.8

====

# maps each entry to its k d
# target: cetuximab IgG
# protocol-text: Surface plasmon resonance binding kinetics of meditope variants to cetuximab
# assay-conditions: SPR, Biacore T100; cetuximab IgG amine-coupled to CM5 chip (5000 RU); HBS-EP+ pH 7.4; flow 30 µl min^−1; off-rate independent of peptide concentration
Give the value, in units of s⁻¹, as a plain number.

| smiles-input | k d (s⁻¹) |
| --- | --- |
| CC(C)C[C@@H]1NC(=O)[C@H](CCCNC(=N)N)NC(=O)[C@H](CCCNC(=N)N)NC(=O)[C@H]([C@@H](C)O)NC(=O)[C@H](CO)NC(=O)[C@H](CC(C)C)NC(=O)[C@H](CC(=O)O)NC(=O)[C@H](Cc2ccccc2)NC(=O)[C@H](CCC(N)=O)NC(=O)CCCCCCNC(=O)[C@H](CCCCN)NC1=O | 0.064 |

## Input Reported k d for `CC(C)C[C@@H]1NC(=O)[C@H](CCCNC(=N)N)NC(=O)[C@H](CCCNC(=N)N)NC(=O)[C@H]([C@@H](C)O)NC(=O)[C@H](CO)NC(=O)[C@H](CC(C)C)NC(=O)[C@H](CC(=O)O)NC(=O)[C@H](Cc2ccccc2)NC(=O)[C@H](CCC(N)=O)NC(=O)[C@@H](N)CSSC[C@@H](C(N)=O)NC(=O)[C@H](CCCCN)NC1=O` : what is it?
## Output 0.018

## Input Reported k d for `CC(=O)N[C@H]1CSSC[C@@H](C(=O)NCC(=O)NCC(=O)N[C@@H](CO)C(=O)N[C@@H](CCCCN)C(=O)O)NC(=O)[C@H](CCCNC(=N)N)NC(=O)[C@H](CC(C)C)NC(=O)[C@H](CCCNC(=N)N)NC(=O)[C@H](CCCNC(=N)N)NC(=O)[C@H]([C@@H](C)O)NC(=O)[C@H](CO)NC(=O)[C@H](CC(C)C)NC(=O)[C@H](CC(=O)O)NC(=O)[C@H](Cc2ccccc2)NC(=O)[C@H](CCC(N)=O)NC1=O` : what is it?
## Output 0.010

## Input Reported k d for `CC(C)C[C@@H]1NC(=O)[C@H](CCCNC(=N)N)NC(=O)[C@H](CCCNC(=N)N)NC(=O)[C@H]([C@@H](C)O)NC(=O)[C@H](CO)NC(=O)[C@H](CC(C)C)NC(=O)[C@H](CC(=O)O)NC(=O)[C@H](Cc2ccccc2)NC(=O)[C@H](CCC(N)=O)NC(=O)CCSSC[C@@H](C(=O)O)NC(=O)[C@H](CCCCN)NC1=O` : what is it?
## Output 0.012

## Input Reported k d for `CC(C)C[C@@H]1NC(=O)[C@H](CCCNC(=N)N)NC(=O)[C@H](CCCNC(=N)N)NC(=O)[C@H]([C@@H](C)O)NC(=O)[C@H](CO)NC(=O)[C@H](CC(C)C)NC(=O)[C@H](CC(=O)O)NC(=O)[C@H](Cc2ccccc2)NC(=O)[C@H](CCC(N)=O)NC(=O)CCNC(=O)CCNC(=O)[C@H](CCCCN)NC1=O` : what is it?
## Output 0.091

## Input Reported k d for `CC(=O)N[C@H]1CSSC[C@@H](C(N)=O)NC(=O)[C@H](CCCCN)NC(=O)[C@H](CC(C)C)NC(=O)[C@H](CCCNC(=N)N)NC(=O)[C@H](CCCNC(=N)N)NC(=O)[C@H]([C@@H](C)O)NC(=O)[C@H](CO)NC(=O)[C@H](CC(C)C)NC(=O)[C@H](CC(=O)O)NC(=O)[C@H](Cc2ccccc2)NC(=O)[C@H](CCC(N)=O)NC1=O` : what is it?
## Output 0.011
